Just for reference, ChEMBL document CHEMBL2311300 is where these values come from.

biological target: Induced myeloid leukemia cell differentiation protein Mcl-1 (Homo sapiens, UniProt Q07820); assay: Binding affinity to Mcl1 (unknown origin) expressed in Escherichia coli BL21 by ITC assay
Sequence (Q07820 whole entry): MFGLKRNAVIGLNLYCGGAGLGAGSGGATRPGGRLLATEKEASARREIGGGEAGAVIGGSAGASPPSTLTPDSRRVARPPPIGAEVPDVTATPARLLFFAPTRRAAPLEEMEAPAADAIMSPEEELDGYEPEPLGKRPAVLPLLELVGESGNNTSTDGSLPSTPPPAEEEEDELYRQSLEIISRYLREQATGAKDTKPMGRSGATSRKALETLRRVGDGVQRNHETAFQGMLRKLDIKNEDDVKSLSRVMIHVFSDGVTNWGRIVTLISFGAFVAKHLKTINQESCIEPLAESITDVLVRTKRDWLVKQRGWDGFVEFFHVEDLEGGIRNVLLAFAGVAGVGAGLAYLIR
PROPERTY_LABEL: pKd
Just so you know, pKd here is -log10 of the concentration in molar units; reply with that number alone.

Req: I am curious: what pKd value has been reported for CC(C)c1ccc(Sc2cnc(O)c(C(=O)NCc3ccccc3)c2)cc1 ?
Resp: 6.01

====

target: Induced myeloid leukemia cell differentiation protein Mcl-1 (Homo sapiens, UniProt Q07820); assay: Inhibition of FAM-Bid peptide binding to Mcl1 (unknown origin) expressed in Escherichia coli BL21 by fluorescence polarization-based binding assay; details: read-out: Ki
pKi overview
Just so you know, pKi here is -log10 of the concentration in molar units; reply with that number alone.

Known results for compounds:
N#Cc1cc(-c2ccccc2)c[nH]c1=O = 4.98
N#Cc1cc(-c2ccc(-c3ccccc3)cc2)cnc1O = 4.90
N#Cc1cc(Sc2ccc(Br)cc2)c[nH]c1=O = 5.32

Req: I am curious: what pKi value has been reported for CC(C)c1ccc(Sc2cc(C#N)c(=O)n(Cc3ccccc3)c2)cc1 ?
Resp: 4.82

Req: Same thing, different compound: N#Cc1cc(-c2cccc3ccccc23)cnc1O
Resp: 5.20
